- test: The compound was tested for inhibition of HIV-1 replication in SW480 cells using HIV tat assay
readoutLabel: IC50
Entry format: amount then unit.

>  <compound>
C[C@]12CC[C@H]3[C@@H](CC[C@@]45O[C@@H]4C(=O)C(S(=O)(=O)c4ccccc4)C[C@]35C)[C@@H]1CC[C@@H]2O (some centres undefined)

>  <readoutLabel>
IC50

>  <result>
10.3 µM

$$$$
>  <compound>
CC(=O)O[C@H]1CC[C@H]2[C@@H]3CC[C@@]4(O)[C@@H](Cl)C(=O)C(C(N)=O)C[C@]4(C)[C@H]3CC[C@]12C (some centres undefined)

>  <readoutLabel>
IC50

>  <result>
8.4 µM

$$$$
>  <compound>
C[C@@]12CCCC[C@]13O[C@@H]3C(=O)C(C(N)=O)C2 (some centres undefined)

>  <readoutLabel>
IC50

>  <result>
9.9 µM

$$$$

Please look up its IC50: C[C@]12CCC3C(CC[C@@]45O[C@@H]4C(=O)C(S(C)(=O)=O)C[C@]35C)C1CC[C@@H]2O (some centres undefined)
8.4 µM

Reference source for all entries: BindingDB's records for doi:10.1021/jm00017a003
